- Study System: RARγ (Mus musculus)
- Sequence (P18911 1-458): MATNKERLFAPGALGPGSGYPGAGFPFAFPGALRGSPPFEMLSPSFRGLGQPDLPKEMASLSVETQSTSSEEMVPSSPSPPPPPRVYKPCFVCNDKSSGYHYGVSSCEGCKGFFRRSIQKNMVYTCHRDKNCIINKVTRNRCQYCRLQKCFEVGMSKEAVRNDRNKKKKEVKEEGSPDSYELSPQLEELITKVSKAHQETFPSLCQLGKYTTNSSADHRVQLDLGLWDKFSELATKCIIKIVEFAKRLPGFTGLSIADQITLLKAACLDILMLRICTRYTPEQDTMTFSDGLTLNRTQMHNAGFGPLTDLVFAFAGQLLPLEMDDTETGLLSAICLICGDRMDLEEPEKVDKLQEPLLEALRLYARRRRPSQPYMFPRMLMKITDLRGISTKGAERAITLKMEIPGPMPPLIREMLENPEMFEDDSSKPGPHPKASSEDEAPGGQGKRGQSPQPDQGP
- Procedure Summary: Transactivation assay (RARE-CAT reporter, CV-1 cells), RARγ
- Condition Details: 50% of maximal activity obtained with 10^−6 M all-trans-RA
Measurement Kind: EC50

Documented EC50 of CC1=C(/C=C/C(C)=C/C=C/C(C)=C\C(=O)Nc2ccc(O)cc2)C(C)(C)CCC1n1ccnc1 (stereo not drawn) : > 10 µM

So, CC1=C(/C=C/C(C)=C/C=C/C(C)=C/C(=O)Nc2ccc(O)cc2)C(C)(C)CCC1n1ccnc1 (stereo not drawn) ? Its EC50 was > 10 µM

Memo: CC1=C(/C=C/C(C)=C/C=C/C(C)=C/C(=O)O)C(C)(C)CCC1n1ccnc1 (stereo not drawn) , reported EC50: 1 µM

----------
- Study System: CRABPII (Mus musculus)
- Construct: Wild-type full-length cDNAs for mouse CRABPI and CRABPII were subcloned into the prokaryotic expression vector pRSETB; pRSETB vector fusion leader (purified on Ni-NTA, so a His tag)
- Sequence (P22935 1-138): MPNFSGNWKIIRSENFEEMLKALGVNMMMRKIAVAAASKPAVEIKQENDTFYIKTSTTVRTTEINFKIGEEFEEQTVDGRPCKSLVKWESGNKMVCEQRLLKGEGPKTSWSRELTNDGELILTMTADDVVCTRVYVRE
- Procedure Summary: CRABP competition binding assay, CRABPII
- Condition Details: competition with [3H]-all-trans-RA
- Description: Wild-type full-length cDNAs for mouse CRABPI and CRABPII were subcloned into the prokaryotic expression vector pRSETB and transformed into Escherichia coli strain BL21(DE3)pLys ([Chen et al, 1995]). […] The binding of each RAMBA to CRABPI and CRABPII was determined by competition binding assays as described previously ([Chen et al, 1995]). […] IC50 values were calculated as described above in the RAR binding studies.
Measurement Kind: IC50

// compound CC1=C(/C=C/C(C)=C/C=C/C(C)=C\C(=O)Nc2ccc(O)cc2)C(C)(C)CCC1n1ccnc1 (stereo not drawn) , assay CRABPII (Mus musculus), IC50 value: > 500 nM

Result for CC1=C(/C=C/C(C)=C/C=C/C(C)=C/C(=O)O)C(C)(C)CCC1n1ccnc1 (stereo not drawn) , tested on CRABPII (Mus musculus), IC50: > 500 nM

CRABPII (Mus musculus) data for CC1=C(/C=C/C(C)=C/C=C/C(C)=C/C(=O)Nc2ccc(O)cc2)C(C)(C)CCC1n1ccnc1 (stereo not drawn) ; its IC50: > 500 nM
